tgt: human IL-1beta (human, UniProt P01584 117-269)
experimental details: cell-based or functional assay
parameter measured: IC50, inhibition of ICAM-1 expression, A549 cells (nM)
Numbers only, in nM.

See these solved cases before continuing.
binder	assay result
Canakinumab (antibody, V domains shown) VH: QVQLVESGGGVVQPGRSLRLSCAASGFTFSVYGMNWVRQAPGKGLEWVAIIWYDGDNQYYADSVKGRFTISRDNSKNTLYLQMNGLRAEDTAVYYCARDLRTGPFDYWGQGTLVTVSS VL: EIVLTQSPDFQSVTPKEKVTITCRASQSIGSSLHWYQQKPDQSPKLLIKYASQSFSGVPSRFSGSGSGTDFTLTINSLEAEDAAAYYCHQSSSLPFTFGPGTKVDIKR	0.31
huH34-2 (antibody, V domains shown, Humanized, captured by anti-human Fc in SPR; also called huH34-2 bivalent) VH: QVQLVQSGAEVKKPGASVKVSCKASGYTFTGYYMHWVRQAPGQGLEWIGYISSYNAFTTYNQKFRGRATFTVDTSISTAYMELSRLRSDDTAVYYCVRSDYYGTSLYWGQGTLVTVSS VL: EIVLTQSPATLSLSPGERATLSCRASSSVSYMHWSQQKPGQAPRLLIYSTSNLASGIPARFSGSGSGTDFTLTISSLEPEDFAVYYCHQWSNYYTFGQGTKLEIK	0.23
murine anti-IL-1beta antibody ILB1-H34 (antibody, mouse IgG1, V domains shown, also called HLB1-H34) VH: EVQLQQSGPELVKTGASVKISCKASGYSFTGYYMHWVKQSHGKSLEWIGYISCYNAFTTYNQRFRGKATFTVDTSSSTAYMQFNSLTSEDSAVYYCVRSDYYGTSLYWGQGTTLTVSS VL: QIVLTQSPAIMSASLGEEITLTCSASSSVSYMHWSQQKSGSSPKLLIYSTSNLASGVPSRFSGSGSGTFYSLTISSVEAEDAADYYCHQWSNYYTFGGGTKLEIK	0.18

Consider now this further binder.
Input huH34-3 (antibody, V domains shown) VH: QVQLVQSGAEVKKPGASVKVSCKASGYTFTGYYMHWVRQAPGQGLEWIGYISSYSAFTTYNQKFRGRATFTVDTSISTAYMELSRLRSDDTAVYYCVRSDYYGTSLYWGQGTLVTVSS VL: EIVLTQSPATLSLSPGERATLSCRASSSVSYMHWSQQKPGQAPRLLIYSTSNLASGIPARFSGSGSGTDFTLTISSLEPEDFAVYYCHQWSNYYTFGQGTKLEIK . Output IC50, inhibition of ICAM-1 expression, A549 cells: 2.23
